Assay: Toxicity liver stage against HepG2, at 10uM
Format: cell-based
Parameters: test concentration 10 uM, cell line HepG2-A16-CD81EGFP
Settings: human, HepG2-A16-CD81EGFP cells; read-out: INHIBITION
I'd be grateful if you could share measured cytotoxicity at 10 µM for these entries.
Give bare numbers, in %.

Previously resolved entries follow.
# MOLECULE, OBS VALUE
data = [
    ("Cc1ccc(S(=O)(=O)N2CCN(C)C3(CCC(=O)N(C)CC3)C2)s1 (stereo unspecified)", 8.63),
    ("c1cncc(COCC2CC[C@H]3[C@H](CCN3CC3CCOCC3)O2)c1 (stereo partly specified)", -71.4),
    ("Cc1noc(C)c1C(=O)N1CCCCC1c1cc(C)n2ccnc2n1 (stereo unspecified)", 15.8),
    ("CCc1nccn1C1CCCN(C(=O)c2ccc3c(c2)OCCO3)C1 (stereo unspecified)", -11.8),
    ("Cc1ccccc1C(N)c1ccncc1 (stereo unspecified)", -0.871),
    ("O=C(Nc1ccccc1CCO)c1cccc(CN2CC[C@H](O)C2)c1", 8.77),
    ("COc1ccc(-c2nc3c([nH]2)CCCNC3=O)cc1OC", 26.6),
    ("O=C(Cc1ccccc1)N1CCC2(CC(=O)N(c3ccsc3)C2)C1 (stereo unspecified)", -10.2),
    ("CCOc1cccc(CCNC(=O)Cc2ccn[nH]2)n1", -27.2),
    ("CC(C)CN1C(=O)C[C@@H]2[C@@H]1CCN2Cc1cccc(C#N)c1", -66.4),
]

What the record says about `Cc1nonc1OCCNC(=O)COc1ccc(Cl)cc1Cl` : cytotoxicity at 10 µM is 3.95

* * *

I'd be grateful if you could share measured cytotoxicity at 10 µM for these entries.
Assay: Toxicity liver stage against HepG2, at 10uM
Assay type: cell-based
Parameters: test concentration 10 uM, cell line HepG2-A16-CD81EGFP
Conditions: human, HepG2-A16-CD81EGFP cells; read-out: INHIBITION
One number for each entry, in %.

# COMPOUND, VALUE KIND, OBS VALUE
rows = [
    ("CC(C)CN1CC[C@@H]2[C@@H]1CCN2C(=O)N1CCCC1", "cytotoxicity at 10 µM", -1),
]

Batch request: cytotoxicity at 10 µM for each of the following compounds.
1. Cn1cnnc1S(=O)(=O)C1CCN(S(=O)(=O)c2ccc(F)c(Cl)c2)CC1
2. COc1ccc(CN2CCCCC2CNC(=O)OC(C)(C)C)cc1F (centres undefined)
3. O=C(Cn1nc2ccccc2n1)N1CCCn2cncc2C1
4. COCCNc1ccc(CNC(=O)Nc2cn[nH]c2)cc1
5. CCN(C)C[C@@H]1CN(C(=O)c2cc(C(F)(F)F)n[nH]2)C[C@@H]1CO
6. Cc1ccc(Cl)cc1-n1nnnc1C1(N2CCCC2)CCCCC1

Response given:
1. -7.2
2. -2.26
3. 1.87
4. -2.68
5. -12.1
6. 18.9

Batch request: cytotoxicity at 10 µM for each of the following compounds.
1. Cc1cc(C(=O)N2CCCC2c2nc(C)cc(O)n2)on1 (centres undefined)
2. Cc1nc(N2CCCC2C(=O)NC(C)(C)CO)nc2ccccc12 (centres undefined)
3. Cc1cc(NC(=O)CN2CCc3nn(C)c(=O)cc3C2)no1
4. COCCN(CC(C)C)C(=O)c1cccc(Nc2cnccn2)c1
5. Cc1ccc(-c2ccc(C(=O)NCCS(N)(=O)=O)c(F)c2)cc1
6. CC(=O)N1CC(C)CN(C(=O)c2cccnc2C)c2ccccc21 (centres undefined)
7. CN1C[C@H]2CN(C(=O)c3ccc4c(c3)OCO4)CCN2C1=O
8. COC(=O)C(NC(=O)C1CC1)c1cc(F)ccc1F (centres undefined)

Response given:
1. -15.2
2. 0.215
3. -5.04
4. -9.59
5. 11.3
6. 6.45
7. -0.434
8. -4.64

Batch request: cytotoxicity at 10 µM for each of the following compounds.
1. CCC1CCCCN1C(=O)CCn1cnc2sccc2c1=O (centres undefined)
2. CCC(CO)NCc1ccc(-c2ccc(F)cc2)o1 (centres undefined)
3. Cc1cccc(CN2CCCn3c(nnc3CN3CCCC3=O)C2)n1

Response given:
[-9.79, -5.67, 2.14]

Batch request: cytotoxicity at 10 µM for each of the following compounds.
1. Cc1ccc(OCC2CCCN(Cc3ccc(CO)o3)C2)cc1 (centres undefined)
2. Cc1nc(N(C)C)nc2c1COCC21CCN(C(=O)NC(C)C)C1 (centres undefined)

Response given:
5.66
-13

Batch request: cytotoxicity at 10 µM for each of the following compounds.
1. Cc1cc(NCCc2nc(C)cs2)nc(-c2cccnc2)n1
2. Cc1occc1C(=O)N1CCO[C@H]2[C@@H](Oc3ccccn3)CC[C@@H]21
3. Cc1nc(CNC(=O)Nc2ccc3c(c2)CCCC(=O)N3)sc1C
4. O=C(CCc1ccsc1)Nc1ccnn1C1CCS(=O)(=O)C1 (centres undefined)

Response given:
1. 1.02
2. 2.37
3. 5.06
4. 9.01

* * *

Assay: Toxicity liver stage against HepG2, at 10uM
Format: cell-based
Parameters: test concentration 10 uM, cell line HepG2-A16-CD81EGFP
Details: human, HepG2-A16-CD81EGFP cells; read-out: INHIBITION
VALUE KIND: cytotoxicity at 10 µM (%)
Answers are plain numbers, in %.

Previously resolved entries follow.
# COMPOUND, OBS VALUE
data = [
    ("O=C(Cc1cccnc1)N1CC(Cc2nccc3cc[nH]c23)C1", 4.87),
    ("COc1ccc(C2(NCc3c(C)nc4c(C)cccn34)CCCC2)cc1", 3.79),
    ("CC(C)CN1CC(c2nc(CCc3ccccc3)n[nH]2)CC1=O (stereo not given)", 6.08),
    ("CNS(=O)(=O)c1cc(C(=O)NC2COc3ccccc3C2)ccc1OC (stereo not given)", 18.9),
    ("CC(C)c1cc(C(=O)N2CCCN(Cc3ccccc3)CC2)n[nH]1", -5.41),
]

Batch request: cytotoxicity at 10 µM for each of the following compounds.
1. Cc1nc(CN2CC[C@H]3[C@@H]2CCC(=O)N3c2cnn(C)c2)cs1
2. CC1=CC[C@@H]2CN(C(=O)c3ccc(-c4nnn(C)n4)cc3)C[C@@H]2C1
3. CC(C)(C)NC(=O)CN1CCN(C(=O)Nc2ccc(F)cc2F)CC1
4. COc1ccc(OC)c(CNCc2c(C(C)C)nn(C)c2N(C)C)c1
5. Cc1cc(C(=O)NCC2CCCO2)c(C)n1-c1cccnc1 (stereo not given)
6. Cc1cc(CN2CCN(C(=O)c3sccc3C3CC3)CC2)on1

Response given:
[11.3, 7.16, -23.2, -5.89, 4.95, 4.69]

* * *

I'd be grateful if you could share measured cytotoxicity at 10 µM for these entries.
Assay: Toxicity liver stage against HepG2, at 10uM
Assay type: cell-based
Design: test concentration 10 uM, cell line HepG2-A16-CD81EGFP
Conditions: human, HepG2-A16-CD81EGFP cells; read-out: INHIBITION
Answers are plain numbers, in %.

Previously resolved entries follow.
# COMPOUND, OBS VALUE
records = [
    ("CS(=O)(=O)CCSc1nnc(Cc2ccccc2F)o1", 0.313),
    ("COc1cc(C)ccc1C(=O)N1C[C@@H](CN(C)CCO)[C@@H](CO)C1", 1),
    ("O=C1NCCCCC1Sc1ccc(F)c(F)c1 (stereo not given)", 5.58),
    ("N#CCCN(Cc1ccccn1)C(=O)Nc1cccc(F)c1", 3.43),
]

Batch request: cytotoxicity at 10 µM for each of the following compounds.
1. Cc1cc(C(=O)N(C)Cc2ccn[nH]2)c(NC(=O)C(C)(C)C)s1
2. CCN1CC2(CCOCC2)c2cc(NS(=O)(=O)CC)ccc21
3. CN(C)c1cccc(C(=O)NCC2(O)CCOCC2)c1
4. O=C(CC1CC1)NCc1cn2c(n1)CN(C(=O)C1CCOCC1)CC2

Response given:
2.72
-104
10.3
-73.2

Batch request: cytotoxicity at 10 µM for each of the following compounds.
1. CCn1nc2c(cc1=O)CN(CC(=O)Nc1nccs1)CC2
2. Cc1cnc(N)nc1N1CCN(CCCO)CC1
3. O=C(NCc1ccco1)N1CCN(Cc2ccc3c(c2)CCO3)CC1
4. Cc1cc(C)n(Cc2cc(C(=O)N3CCCCC3c3nccs3)n[nH]2)n1 (stereo not given)
5. CS(=O)(=O)CCCN1CCN(C(C#N)c2ccccc2)CC1 (stereo not given)
6. CN1CCCCC1CCC(=O)NCCSc1cnn[nH]1 (stereo not given)

Response given:
1. -4.74
2. 0.761
3. -2.83
4. 13.8
5. -3.14
6. 0.00194

Batch request: cytotoxicity at 10 µM for each of the following compounds.
1. Cc1cc(C)n(CC(C)NC(=O)c2cc(C(C)C)on2)n1 (stereo not given)
2. OCCn1nccc1C1CCN(Cc2nc(C3CC3)no2)CC1
3. CCOc1ccc(NC(=O)N2CCOC(C(N)=O)C2)cc1C (stereo not given)
4. CO[C@H]1CN(C(=O)c2cc3ccccc3[nH]2)CC[C@H]1N
5. CN(CC(=O)N1CCc2[nH]c3ccccc3c2C1)CC1OCCO1
6. O=C(NCC1CCCO1)c1cc(Sc2ncccn2)ccn1 (stereo not given)
7. Cc1noc(CN(C)CC2CCN(CCO)CC2)n1

Response given:
[0.5, -11.7, -140, 11, -1.63, -17.2, 5.82]

Batch request: cytotoxicity at 10 µM for each of the following compounds.
1. COCCCN(Cc1cnc(-c2ccccn2)nc1)C1CCN(C)CC1
2. COCCN(CCOC)C(=O)NC1CCCCC1
3. COCc1ccc(C(=O)N2CC[C@@](O)(COC)C(C)(C)C2)o1
4. Cc1cc(S(=O)(=O)Nc2onc(C)c2C)sc1C

Response given:
[-0.988, -0.655, -2.69, 5.54]
